The following compounds are shown together with reported TGI values.
# Test system: KM12 colon
# experimental protocol: NCI tumour cell line growth inhibition, 48 h

I looked up `c1cc2nnsc2s1` and its TGI for KM12 colon was > 100 µM

I looked up `C#CC(=O)Nc1cccc2c1cc(C)n2-c1nc2c(c(NCc3ccccc3)n1)CCCC2` and its TGI for KM12 colon was 0.546 µM

I looked up `Nc1ccc(O)c2c1C(=O)c1c(N)ccc(O)c1C2=O` and its TGI for KM12 colon was > 100 µM

I looked up CC1C(=O)CC(c2cccs2)N(N=O)C1c1cccs1 (stereo not given) and its TGI for KM12 colon was > 100 µM

I looked up `Cn1c2c(c3ccccc31)CCN(CCCCN1CCN(c3ccccc3)CC1)C2=O` and its TGI for KM12 colon was > 89.9 µM

I looked up `COc1cc(/C=C2\N=C(c3ccccc3)N(c3ccc(C(=O)c4ccccc4)cc3N3C(=O)/C(=C/c4ccc(O)c(OC)c4)N=C3c3ccccc3)C2=O)ccc1O` and its TGI for KM12 colon was 22.4 µM

###

The following molecules are shown together with reported GI50 values.
# System: SW-620 colon
# experimental protocol: NCI tumour cell line growth inhibition, 48 h

Example entries begin here.
# molecule, GI50
measured = [
    ("C=CC(=O)N1C[C@@H]2CCOc3c(Cl)c(-c4c(O)cccc4F)c(F)c4ncnc(c34)N2C[C@H]1C", "13.9 µM"),
    ("C#Cc1cccc(Nc2ncnc3ccc(OCCCCNCCS(C)(=O)=O)cc23)c1", "9.43 µM"),
]

// field: GI50; key: `COC(=O)c1cc2oc(/C=C3/SC(=S)N(N)C3=O)cc2n1Cc1ccccc1` ; value = 13.4 µM

// field: GI50; key: COc1ccc(C2CC(c3ccc(Nc4ccnc5cc(Cl)ccc45)cc3)=NN2C=O)cc1 (stereo not given) ; value = 35.8 µM

// field: GI50; key: `Clc1cc(Cl)c(OCCCCCCN2CCNCC2)c(Cl)c1` ; value = 1.91 µM

###

The following compounds are shown together with reported GI50 values.
# Test system: HS 578T breast
# experimental protocol: NCI tumour cell line growth inhibition, 48 h

Example entries begin here.
# compound, measured target, GI50
rows = [
    ("CC(C)(C)CC(C)(C)c1ccc(O)c(Cc2ccc(Cl)cc2Cl)c1", "HS 578T breast", "1.71 µM"),
    ("Oc1c(Cl)cc(Cl)cc1/C=N/Nc1nnc(N/N=C/c2cc(Cl)cc(Cl)c2O)c2ccccc12", "HS 578T breast", "1.03 µM"),
    ("Cc1cc(N2CCCCC2)nc(NC2CCCC(Nc3ccnc4cc(Cl)ccc34)C2)n1 (stereo not drawn)", "HS 578T breast", "1.55 µM"),
    ("C#Cc1cccc(Nc2ncnc3ccc(OCCCCNCCS(C)(=O)=O)cc23)c1", "HS 578T breast", "8.66 µM"),
    ("COc1cc(-c2nc3sc(C)cn3c2/C=C2\\C(=O)Nc3ccccc32)c(Br)c(OC)c1OC", "HS 578T breast", "31.5 µM"),
    ("Cc1cnc2oc3ccc(O)cc3c2c1-c1ccccc1", "HS 578T breast", "19.6 µM"),
    ("COC(=O)[C@]12CC[C@@H](C)[C@H](C)[C@@H]1C1=CC[C@@H]3[C@@]4(C)C[C@@H](OC(=O)/C=C/c5ccccc5)[C@H](O)[C@@](C)(CO)[C@@H]4[C@H](O)C[C@@]3(C)[C@]1(C)CC2", "HS 578T breast", "1.88 µM"),
]

// field: GI50; key: C=C1C(=O)O[C@H]2[C@H](OC(C)=O)[C@@H](C)CCCC3(C)OC3CCC3(CO3)[C@H](O)C[C@@H]12 (stereo partly drawn) ; value = 11.8 µM

###

# Tested on: OVCAR-5 ovarian
# experimental protocol: NCI tumour cell line growth inhibition, 48 h; in the data active means GI50 below about 0.43 µM; inactive means the rest
Can you answer with just one of these options? active, inactive

As a guide, the following entries are already answered.
# structure string, answer label
data = [
    ("O=Nc1c(-c2c(O)[nH]c3cc(Br)ccc23)[nH]c2ccccc12", "inactive"),
    ("Cc1ccc(C=C2C(Cl)=C(Cl)C(Cl)=C2Cl)cc1", "inactive"),
    ("Cc1ccc2cccc(OC(=O)Nc3cccc(C(F)(F)F)c3)c2n1", "inactive"),
]

Which outcome was assigned to `CC[C@@]1(O)C(=O)OCc2c1cc1n(c2=O)Cc2cc3ccccc3nc2-1` in this test?
active

Which outcome was assigned to `CN(C)CCCSc1ccccc1NC1=C(Cl)C(=O)C(Nc2ccccc2SCCCN(C)C)=C(Cl)C1=O` in this test?
inactive

###

# System: NCI-H460 lung
# experimental protocol: NCI tumour cell line growth inhibition, 48 h
measurement type: TGI

// field: TGI; key: `c1cc2nnsc2s1` ; value = > 100 µM

###

The following compounds are shown together with reported TGI values.
# Test system: SR leukemia
# experimental protocol: NCI tumour cell line growth inhibition, 48 h
Value expressed in µM; do not type the unit.

Example entries begin here.
# compound, TGI / µM
rows = [
    ("COc1ccc(C2CC(c3ccc(Nc4ccnc5cc(Cl)ccc45)cc3)=NN2C=O)cc1 (stereo not given)", 6.64),
    ("CCC1(CC)C(=O)N(C(=O)c2ccccc2)N(C(=O)c2ccc(Cl)cc2)C1=O", 53.6),
]

Attention now turns to another entry.
// field: TGI; key: `CCC/C(Cl)=N/OC(=O)Nc1cc(C(F)(F)F)ccc1OC` ; value = 13.5

###

# Test system: KM20L2 colon
# experimental protocol: NCI tumour cell line growth inhibition, 48 h
measurement type: TGI (µM)
Value expressed in µM; do not type the unit.

Example entries begin here.
# compound, measurement unit, TGI
rows = [
    ("CC[C@@]1(O)C(=O)OCc2c1cc1n(c2=O)Cc2cc3ccccc3nc2-1", "µM", 3.65),
    ("NS(=O)(=O)c1ccc(NC(=O)Cc2nc3ccccc3s2)cc1", "µM", 33.9),
]

// field: TGI; key: CCN(CC)CC(C)C(=O)/C=C/c1ccc(C)cc1 (stereo unspecified) ; value = 21.6

// field: TGI; key: `CN(C)CCNC(=O)c1cc(Cl)cc2cc3ccccc3nc12` ; value = 1.42

###

# Tested on: ACHN renal
# experimental protocol: NCI tumour cell line growth inhibition, 48 h
measurement type: TGI

Example entries begin here.
# compound, result
records = [
    ("CCOC(=O)CCC(C(=O)OCC)n1nc2ccc(Nc3c(C)[n+]([O-])c4cc(F)c(OCC)cc4[n+]3[O-])cc2n1 (stereo not given)", "> 100 µM"),
    ("COc1ccc(-c2nc3c(nc2-c2ccc(OC)cc2)C(N)=NS(=O)(=O)N3)cc1", "> 100 µM"),
    ("Nc1[nH]c(=S)nc2nc3c(c(-c4ccccc4)c12)CCCC3", "> 100 µM"),
    ("COc1ccc(N2C(=O)C3c4[nH]c5ccccc5c4C4CC(C)(C)CC(C)(C)C4C3C2=O)cc1 (stereo not given)", "31.9 µM"),
    ("CC(=O)OCCOCNC(=S)N/N=C/c1cc([N+](=O)[O-])ccc1O", "> 100 µM"),
    ("O=C(O)CC(NC(=O)/C(=C/c1ccccc1)NC(=O)c1ccccc1)C(=O)O (stereo not given)", "> 100 µM"),
]

I looked up `Cc1c(/C=N/NC(=S)Nc2ccc(Cl)cc2)c(=O)n(-c2ccccc2)n1C` and its TGI for ACHN renal was 31.9 µM

###

# System: SN12C renal
# experimental protocol: NCI tumour cell line growth inhibition, 48 h
measurement type: TGI

Example entries begin here.
# compound, TGI
rows = [
    ("Clc1cc(Cl)c(OCCCCCCN2CCNCC2)c(Cl)c1", "23.6 µM"),
    ("COC(=O)c1cc(=O)n(-c2ccc3nn(C)nc3c2)cc1C(=O)OC", "> 100 µM"),
    ("CSc1nc2nn(Cc3ccccc3)cc2c(=O)[nH]1", "> 100 µM"),
    ("COc1cc([N+](=O)[O-])c(OC)cc1-c1nc2sc(C)cn2c1/C(N)=N/C(=N)N", "49.1 µM"),
    ("C=CCC1(Sc2ccccn2)Sc2ccc3ccccc3c2-c2c(ccc3ccccc23)S1", "> 100 µM"),
    ("CCOC(=O)c1ccc(C(=O)n2ccnc2)[nH]1", "> 100 µM"),
    ("Oc1ccc2ccccc2c1N=Nc1cc(Cl)ccc1Cl", "> 50 µM"),
    ("O=C(Oc1c(Cl)cc(C2(c3cc(Cl)c(OC(=O)c4ccccc4)c(Cl)c3)CCCCC2)cc1Cl)c1ccccc1", "28.2 µM"),
    ("O=C(O)CC(NC(=O)/C(=C/c1ccccc1)NC(=O)c1ccccc1)C(=O)O (stereo unspecified)", "> 100 µM"),
    ("N#CC1=C(N)NC(=S)NC12Nc1ccccc1S2 (stereo unspecified)", "63.6 µM"),
]

// field: TGI; key: `NS(=O)(=O)c1ccc(NC(=O)Cc2nc3ccccc3s2)cc1` ; value = 30.9 µM

// field: TGI; key: `CN(CC(=O)O)Cc1c(O)c(Cl)cc(Cl)c1Cl` ; value = > 100 µM

// field: TGI; key: `Cc1ccc2cccc(OC(=O)Nc3cccc(C(F)(F)F)c3)c2n1` ; value = 8.18 µM
